Origin of measurements: patent US20190322750A1

molecular target: T1, PD-L1-hFc (human, UniProt Q9NZQ7 19-238); experiment: kinetics on PD-L1-hFc (legend paragraph 40; text names ProteOn XPR36, the sheet's sensorgrams have a nm axis)
T1 construct: extracellular domain; Made in HEK-293F cells, protein A purified; also called PD-L1 antigen; PD-L1 protein
T1 sequence (Q9NZQ7 other isoform, or with tags, fused parts or gaps limits assumed): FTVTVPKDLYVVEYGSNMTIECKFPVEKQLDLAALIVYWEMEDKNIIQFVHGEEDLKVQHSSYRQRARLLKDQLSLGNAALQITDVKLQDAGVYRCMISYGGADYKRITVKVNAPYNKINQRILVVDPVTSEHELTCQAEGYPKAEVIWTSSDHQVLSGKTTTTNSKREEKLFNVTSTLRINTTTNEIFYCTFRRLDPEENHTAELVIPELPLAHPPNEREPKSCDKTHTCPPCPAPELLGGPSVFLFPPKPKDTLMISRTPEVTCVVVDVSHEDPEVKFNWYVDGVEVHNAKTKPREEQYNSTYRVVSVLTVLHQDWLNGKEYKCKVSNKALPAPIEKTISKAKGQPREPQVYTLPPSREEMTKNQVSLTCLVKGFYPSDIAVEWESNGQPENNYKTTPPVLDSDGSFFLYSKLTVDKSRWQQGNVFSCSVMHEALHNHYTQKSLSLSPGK
Experimental Readout: kon (M⁻¹ s⁻¹)
Give the value, in units of M⁻¹ s⁻¹, as a plain number.

Per the records, this binder ( PDL1-16E12 (antibody, V domains shown, Only FR/CDR pieces are tied to the clone; also called parent antibody) VH: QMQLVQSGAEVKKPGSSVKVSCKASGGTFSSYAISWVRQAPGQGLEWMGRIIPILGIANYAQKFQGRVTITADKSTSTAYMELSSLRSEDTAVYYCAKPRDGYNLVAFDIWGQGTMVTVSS VL: QLVLTQPPSVSGAPGQTVTISCTGSSSNIGAGYDVHWYQQLPGTAPKLLIYGNNNRPSGVPDRFSGSKSGALASLAITGLQAEDGADYHCQSYDNSLSAHAVFGTGTKVTVL ) has kon equal to 334000

Per the records, this binder ( PDL1-16E12 (LS/4A7) (antibody, V domains shown, also called PD-L1-16E12-4A7) VH: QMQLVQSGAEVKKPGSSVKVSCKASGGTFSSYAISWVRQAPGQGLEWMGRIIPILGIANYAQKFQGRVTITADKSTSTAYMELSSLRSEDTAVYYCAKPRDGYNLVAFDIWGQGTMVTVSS VL: QLVLTQPPSVSGAPGQRVTISCTGSSSNIGAGYDVHWYQSLPGTVPKLLISGNSNRPPGVPDRFSGSKSGTSASLAITSLQSEDEADYYCHSYDGSLSEGVFGTGTKVTVL ) has kon equal to 161000

Per the records, this binder ( PDL1-16E12 (LS/4H8) (antibody, V domains shown, also called PD-L1-16E12-4H8) VH: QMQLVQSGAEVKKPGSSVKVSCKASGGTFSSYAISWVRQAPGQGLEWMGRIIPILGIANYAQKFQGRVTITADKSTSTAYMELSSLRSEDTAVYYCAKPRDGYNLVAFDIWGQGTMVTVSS VL: QLVLTQPSSVSGAPGQRVTISCTGSSSNIGAGYDVHWYQQLPGTAPKLLIYGNSNRPSGVPDRFSGSKSGTSASLAITGLQAEDEADYYCQSYDSSLSGSGVFGTGTKVTVL ) has kon equal to 240000
